System: Amaranthus
procedure summary: Cytokinin-like effect in Amaranthus cotyledons assessed as dark induction of betacyanin synthesis at 100 umol/L relative to 6-benzylaminopurine
Format: functional
assay setup: at 100 µM
measurement name: Activity (%)
Report the value in % with no unit label.

Take a look at these entries with their results.
smiles_structure=Fc1ccc(Nc2nc(Cl)nc3[nH]cnc23)cc1 result_number=92
smiles_structure=COc1cccc(Nc2nc(SC)nc3[nH]cnc23)c1 result_number=101
smiles_structure=COc1ccc(Nc2nc(Cl)nc3[nH]cnc23)cc1 result_number=60
smiles_structure=COc1cccc(Nc2nc(N)nc3[nH]cnc23)c1 result_number=116
smiles_structure=Clc1nc(Nc2ccccc2)c2nc[nH]c2n1 result_number=139

Which value of Activity has been reported for c1ccc(Nc2ncnc3[nH]cnc23)cc1 in the records?
52

Could you share which Activity value was measured for COc1cccc(Nc2ncnc3[nH]cnc23)c1 ?
124.5

Would you kindly share the measured Activity for COc1cccc(Nc2nc(Cl)nc3c2ncn3C(C)C)c1 ?
44

Fill in the blank: the reported Activity of Oc1cccc(Nc2nc(Cl)nc3[nH]cnc23)c1 is ____.
52

Name the reported Activity value associated with the compound Clc1ccc(Nc2nc(Cl)nc3[nH]cnc23)cc1
139

Name the recorded Activity for COc1cccc(Nc2nc(Cl)nc3[nH]cnc23)c1 .
149

Name the recorded Activity for COc1cccc(Nc2nc(F)nc3[nH]cnc23)c1 .
107

Entry COc1cccc(Nc2nc([N+](=O)[O-])nc3[nH]cnc23)c1 : reported Activity = ?
43

----------
target or test system: Histidine kinase 4 (Arabidopsis thaliana, UniProt Q9C5U0)
Sequence (Q9C5U0 whole entry): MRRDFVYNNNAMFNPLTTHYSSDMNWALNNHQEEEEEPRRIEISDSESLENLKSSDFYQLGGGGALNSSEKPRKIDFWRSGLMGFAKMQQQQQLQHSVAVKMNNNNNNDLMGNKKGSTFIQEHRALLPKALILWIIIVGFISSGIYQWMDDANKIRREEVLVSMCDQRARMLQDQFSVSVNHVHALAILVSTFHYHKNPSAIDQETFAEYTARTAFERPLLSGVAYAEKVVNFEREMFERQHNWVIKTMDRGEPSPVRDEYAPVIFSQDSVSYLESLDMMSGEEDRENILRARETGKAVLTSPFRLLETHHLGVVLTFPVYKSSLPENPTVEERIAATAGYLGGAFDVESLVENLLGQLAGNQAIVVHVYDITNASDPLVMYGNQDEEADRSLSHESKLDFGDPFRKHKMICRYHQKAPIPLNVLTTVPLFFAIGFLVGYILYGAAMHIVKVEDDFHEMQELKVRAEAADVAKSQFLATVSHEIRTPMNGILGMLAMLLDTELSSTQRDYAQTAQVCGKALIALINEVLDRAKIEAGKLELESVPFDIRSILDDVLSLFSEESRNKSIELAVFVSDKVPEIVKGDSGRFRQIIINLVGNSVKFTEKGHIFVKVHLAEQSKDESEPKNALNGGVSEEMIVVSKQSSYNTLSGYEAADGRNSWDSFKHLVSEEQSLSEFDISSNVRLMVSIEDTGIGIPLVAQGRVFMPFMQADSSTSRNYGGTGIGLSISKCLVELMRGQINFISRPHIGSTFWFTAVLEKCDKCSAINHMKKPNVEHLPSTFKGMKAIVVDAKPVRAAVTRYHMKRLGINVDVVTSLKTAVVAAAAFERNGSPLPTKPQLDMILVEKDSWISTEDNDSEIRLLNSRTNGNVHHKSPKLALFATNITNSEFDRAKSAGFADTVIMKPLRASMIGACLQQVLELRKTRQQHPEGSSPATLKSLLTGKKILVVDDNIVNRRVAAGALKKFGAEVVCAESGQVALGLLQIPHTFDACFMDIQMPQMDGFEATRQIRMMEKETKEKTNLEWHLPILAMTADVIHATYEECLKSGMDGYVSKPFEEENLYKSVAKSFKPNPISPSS
procedure summary: Activation of Arabidopsis thaliana AHK4/CRE1 receptor expressed in Escherichia coli KMI001 by beta-galactosidase activity
measurement name: EC50 (µM)
Return type: number; implicit unit µM.

Below, each entry is followed by its recorded EC50 result.
molecule="O=C(Nc1ccccc1)Nc1cnns1 [THIDIAZURON]" result_number=1
molecule=COc1cccc(Nc2nc(Cl)nc3[nH]cnc23)c1 result_number=7
molecule=COc1cccc(Nc2nc(F)nc3[nH]cnc23)c1 result_number=19

Quick one: EC50 of C/C(=C\CNc1ncnc2[nH]cnc12)CO ?
1.1

EC50 lookup needed for Fc1cccc(Nc2nc(Cl)nc3[nH]cnc23)c1 , thanks.
24.8

Quick one: EC50 for Oc1ccc(Nc2nc(Cl)nc3[nH]cnc23)cc1 ?
4.6

Reported EC50 for Oc1cccc(Nc2nc(Cl)nc3[nH]cnc23)c1 : what is it?
3.75

Quick check: EC50 of COc1cccc(Nc2ncnc3[nH]cnc23)c1 ?
31

----------
Heads up, these compounds all have pIC50 values measured for UniProt:Q9FUJ3.
Sequence (Q9FUJ3 whole entry): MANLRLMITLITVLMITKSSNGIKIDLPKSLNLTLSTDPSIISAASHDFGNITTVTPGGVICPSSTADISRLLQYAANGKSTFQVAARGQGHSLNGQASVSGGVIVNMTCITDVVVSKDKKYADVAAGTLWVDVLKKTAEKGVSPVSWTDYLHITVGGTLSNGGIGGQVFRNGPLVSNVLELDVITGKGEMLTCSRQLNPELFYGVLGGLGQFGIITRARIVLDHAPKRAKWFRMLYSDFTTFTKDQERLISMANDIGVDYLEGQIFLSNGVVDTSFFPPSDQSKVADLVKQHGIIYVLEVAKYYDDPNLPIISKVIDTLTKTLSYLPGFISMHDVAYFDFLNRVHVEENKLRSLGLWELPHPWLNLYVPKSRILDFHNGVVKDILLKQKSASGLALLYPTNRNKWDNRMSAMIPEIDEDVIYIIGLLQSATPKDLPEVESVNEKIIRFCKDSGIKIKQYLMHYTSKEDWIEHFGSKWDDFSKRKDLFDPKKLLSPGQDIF
// returns pIC50 (minus log10 of molar concentration), number only

Example entries begin here.
smiles_structure=Clc1ccc(Nc2nc(Cl)nc3[nH]cnc23)cc1 measurement_name=pIC50 result_number=4.60
smiles_structure=COc1cccc(Nc2nc(F)nc3[nH]cnc23)c1 measurement_name=pIC50 result_number=6.00
smiles_structure=COc1cccc(Nc2nc(Cl)nc3c2ncn3C)c1 measurement_name=pIC50 result_number=4.21
smiles_structure=Clc1cccc(Nc2nc(Cl)nc3[nH]cnc23)c1 measurement_name=pIC50 result_number=5.41

Which value of pIC50 has been reported for O=C(Nc1ccccc1)Nc1cnns1 in the records?
4.54

Endpoint output: pIC50 of Oc1cccc(Nc2nc(Cl)nc3[nH]cnc23)c1 . Value?
5.43

// query pIC50 value for entry COc1cccc(Nc2nc(Cl)nc3[nH]cnc23)c1
5.72

Requested field: pIC50. Item: COc1cccc(Nc2nc([N+](=O)[O-])nc3[nH]cnc23)c1
4.85
